experiment: passive permeability, PAMPA, ADME assay (AID 1508612); details: pH 7.4, 30.0 min, 50.0 µM
Note to self: values exactly at 100 ×10⁻⁶ cm/s are fulfilled. So Papp at or above 100 ×10⁻⁶ cm/s is fulfilled, below is not fulfilled.

These solved cases illustrate the format of a correct answer.
COMPOUND	CLASS_LABEL
Cc1cc(-c2nnc3n2CCCCC3)c(C)n1-c1ccc(C(C)(C)C)cc1	fulfilled
COc1ccc(-n2nc(C)c([C@@H]3C=C[C@@H](NCc4ccc(F)cc4)C3)c2C)cc1	fulfilled

Q) Check this compound for Papp at or above 100 ×10⁻⁶ cm/s: "O=C1Nc2ccccc2/C1=C\c1ccc(O)c(Cl)c1"
A) fulfilled

Q) Has "C#Cc1ccc(NC(=O)c2cnn3c(C)cc(C)nc23)cc1" a recorded Papp greater than or equal to 100 ×10⁻⁶ cm/s?
A) not fulfilled

Q) Answer whether Papp of "N#Cc1ccccc1-c1csc(N2CCC(C(N)=O)CC2)n1" is greater than or equal to 100 ×10⁻⁶ cm/s.
A) fulfilled

Q) # bool: Papp of "Nc1cc2nc3ccccc3oc-2cc1=O" >= 100 ×10⁻⁶ cm/s
A) fulfilled

Q) Quick check, Papp >= 100 ×10⁻⁶ cm/s? CC(Nc1nc(N2CCN(S(C)(=O)=O)CC2)nc2ccccc12)c1ccccc1 (configuration not stated)
A) fulfilled

Q) Item "CC(C)Oc1ccc(CNC(=O)C2CCN(C(=O)N3CCOc4ccc(Cl)cc43)CC2)cc1" with Papp of 100 ×10⁻⁶ cm/s or above?
A) fulfilled

Q) Confirm if Papp reported for the compound "Nc1scc2c(C(=O)O)nn(-c3ccccc3)c(=O)c12" is 100 ×10⁻⁶ cm/s or above.
A) not fulfilled

Q) Given "CC(=O)c1c(C)[nH]c(C(=O)Nc2ccc(Cl)cc2)c1C" , state whether its Papp is at least 100 ×10⁻⁶ cm/s.
A) fulfilled

Q) Hello, I need to know if "Cc1ccc(NC(=O)CSc2ncc(S(=O)(=O)c3ccc(C(C)C)cc3)c(=O)[nH]2)cc1C" has measured Papp not below 100 ×10⁻⁶ cm/s. Thanks!
A) not fulfilled

Q) I'd appreciate it if you could say whether "Cc1ccc2nc(-c3cc(NC(=O)c4ccc5c(c4)OCCO5)ccc3Cl)oc2c1" has Papp at least equal to 100 ×10⁻⁶ cm/s.
A) fulfilled

Q) Assess whether reported Papp for "COC(=O)c1ccc(NS(=O)(=O)c2c(C)nc3sccn3c2=O)cc1" sits at 100 ×10⁻⁶ cm/s or higher.
A) fulfilled

Q) // inclusive: Papp at least 100 ×10⁻⁶ cm/s? input: "Cc1ccc(-n2nc3c(=O)n(CCCC(=O)NCc4ccc(F)cc4)nc(C)c3c2C)cc1"
A) fulfilled

The reported numbers originate from PubChem BioAssay AID1508612.
